Taken from PubChem BioAssay (NCI).

Recorded measurements of TGI, one per entry
Test system: HT29 colon
protocol.notes: NCI tumour cell line growth inhibition, 48 h

In the examples that follow, each entry is paired with its recorded TGI.
compound: O=C1CC(C(COCc2ccccc2)OCc2ccccc2)CC(=O)N1 (stereo not drawn)
experimental.system: HT29 colon
TGI: > 100 µM
--
compound: COc1ccc(C2=NNC(c3cc4cc(Br)ccc4nc3Cl)C2)cc1 (stereo not drawn)
experimental.system: HT29 colon
TGI: > 25 µM

Alright, here's another compound for you.
Let me know recorded TGI for "COc1cc2[nH]c(=O)c3cc(C)cc4c(Cl)nc(c1OC)c2c43" , thanks.
> 100 µM

----------
Tested on: HL-60(TB) leukemia
protocol.notes: NCI tumour cell line growth inhibition, 48 h
# reported TGI; entries follow

compound: N#Cc1c(N2CCCC2)nsc1Nc1ccc(F)cc1
result.value: > 100 µM
//
compound: CN1C=COC1N=C1CCCCC1 (stereo unspecified)
result.value: > 100 µM
//
compound: O=C(CSCC(=O)N/N=C\c1ccccc1F)N/N=C\c1ccccc1F
result.value: > 100 µM
//
compound: CNC(=O)c1cc(Oc2ccc3nc(N[C@@H]4CCCC[C@H]4O)sc3c2)ccn1
result.value: > 100 µM
//
compound: COc1cc2[nH]c(=O)c3cc(C)cc4c(Cl)nc(c1OC)c2c43
result.value: > 100 µM
//
compound: Nc1nc(-c2ccc(Cl)cc2)cc(-c2ccc(Cl)cc2)c1-c1nc2ccccc2o1
result.value: 37.2 µM
//
compound: OCC(O)COc1c(Cl)cc(Cl)cc1Cl (stereo unspecified)
result.value: > 100 µM
//
compound: O=C1O[C@H]2C3C4CCC(C4[C@@H]2I)[C@H]13 (stereo partly specified)
result.value: > 100 µM

Find the measured TGI of "Cc1cc2oc3c(ccc(=O)n3C)c(=O)c2c(C)c1Cl" with HL-60(TB) leukemia as test system.
> 100 µM

Determine reported TGI for CCOC(=O)c1ccccc1SC(C[N+](=O)[O-])c1ccccc1 (stereo unspecified) ; test system: HL-60(TB) leukemia.
27.9 µM

// fetch TGI for "O=C(c1ccccc1)c1c(C(F)(F)F)n([O-])c2cc(F)c(F)cc2[n+]1=O" ; system: HL-60(TB) leukemia
1.55 µM

----------
System: EKVX NSCLC
protocol.notes: NCI tumour cell line growth inhibition, 48 h
TGI vs 30 µM: at or above is class 1, below is class 0.

Known results for compounds:
compound: CC(=O)O[C@H]1C[C@](C)(O)[C@@]23CC([C@@H](OC(=O)C(C)(C)O)[C@@H](OC(C)=O)C2(COC(=O)c2ccccc2)[C@H]1OC(C)=O)C(C)(C)O3 (stereo not given in full)
experimental.system: EKVX NSCLC
label.value: class 1

compound: O=C(CC(c1ccccc1)C(C(=O)c1ccncc1)C(CC(=O)c1ccncc1)c1ccccc1)c1ccncc1 (stereo not given)
experimental.system: EKVX NSCLC
label.value: class 1

compound: COc1cccc([C@@H]2CC(=O)c3cc4c(cc3N2)OCO4)c1
experimental.system: EKVX NSCLC
label.value: class 1

compound: CO[C@]12CC(=O)C3(C(C[C@H]4CC5CC[C@H]6C[C@@H](OC(C)=O)CC[C@]6(OC(C)=O)C5C[C@@]43C)C1)C1C[C@H]3[C@@H]4CC[C@H]5C[C@@H](OC(C)=O)CC[C@]5(OC(C)=O)[C@H]4CC[C@]3(C)C12 (stereo not given in full)
experimental.system: EKVX NSCLC
label.value: class 1

compound: CN(C)CC1CCCc2ccccc2C1=O (stereo not given)
experimental.system: EKVX NSCLC
label.value: class 0

Decide: TGI of "CCOc1cc2c(=O)oc3c(OC)ccc4ccc(c1OC)c2c43" >= 30 µM?
class 1

----------
Tested on: A549 NSCLC
protocol.notes: NCI tumour cell line growth inhibition, 48 h
Listing of entries alongside the reported TGI.

Consider the following illustrative entries.
compound: O=C1NC(=O)[C@@H](c2c[nH]c3ccccc23)[C@@H]1c1c[nH]c2ccccc12
experimental.system: A549 NSCLC
test.readout: TGI
result.value: > 25 µM
//
compound: CN(/N=C/c1ccc(Cl)cc1)C1=NCCCCN1
experimental.system: A549 NSCLC
test.readout: TGI
result.value: > 100 µM
//
compound: CC(=O)OCC1OC(SC2=NC(=O)/C(=C/c3ccccc3)S2)C(OC(C)=O)C(OC(C)=O)C1OC(C)=O (stereo unspecified)
experimental.system: A549 NSCLC
test.readout: TGI
result.value: > 100 µM
//
compound: CN(C(=O)C12C3C4C1C1C2C3C41C(O)C(C)(C)C)C(C)(C)C (stereo unspecified)
experimental.system: A549 NSCLC
test.readout: TGI
result.value: > 100 µM
//
compound: CC1=NN(C(=O)Cc2ccccc2)C(=O)/C1=C\c1ccccc1O
experimental.system: A549 NSCLC
test.readout: TGI
result.value: > 100 µM
//
compound: Cc1cccc(C(C)C)c1NC(=O)CCl
experimental.system: A549 NSCLC
test.readout: TGI
result.value: > 100 µM

# return recorded TGI for entry "CCn1c(=O)c2c3ccc(OC)cc3[nH]c2c2ccc(OC)cc21"
> 100 µM

# return recorded TGI for input "O=C(CSCC(=O)N/N=C\c1ccccc1F)N/N=C\c1ccccc1F"
> 100 µM

Consider the compound O=C(NN1C(=O)C(Cl)C1c1ccccc1Cl)c1ccccc1O (stereo unspecified) . State its measured TGI.
> 100 µM

Please report the measured TGI for "COc1ccc(-c2nc(-c3cnccn3)n(Cc3ccccc3)n2)cc1"
> 100 µM

Quick one: give measured TGI for "Cc1ccc(C#CS(=O)(=O)C(F)(F)F)cc1"
> 100 µM

Output TGI of "O=C(Cn1c(C(=O)c2ccc(Cl)cc2)nc(-c2ccccc2)c1-c1ccccc1)c1ccc(Cl)cc1"
> 100 µM

Tell us which TGI value is on record for CC1(C)CN=CC(C)(OCc2ccccc2)C(=O)NC(C)(C)CN=CC(C)(OCc2ccccc2)C(=O)N1 (stereo unspecified)
> 10 µM

Could you please provide reported TGI for "COc1ccc(C2=C(Cl)c3cc(OC)c(OC)cc3C2)cc1OC" ? Thanks!
> 100 µM

Return the recorded TGI value; entry: OCC1OC(c2ccccc2)CC1O (stereo unspecified)
> 100 µM

Provide only the value of recorded TGI for "C[C@]12CC[C@H](O)CC1=CC[C@@H]1[C@@H]2CC[C@]2(C)C(=O)/C(=C/c3ccc([N+](=O)[O-])cc3)C[C@@H]12"
29.8 µM

Identify measured TGI associated with "COc1ccc2c(c1)[nH]c(=O)c1c3cc(OC)c(OC)cc3cn21"
1.41 µM

Hello, please tell me recorded TGI for this one: C[N+]1([O-])[C@H]2CC(OC(=O)[C@H](CO)c3ccccc3)C[C@H]1[C@H]1O[C@H]12 (stereo partly specified)
> 100 µM

Give a short answer stating reported TGI for "CN(C)CCNC(=O)c1c2ccccc2cc2ccccc12" .
> 100 µM

Note down TGI recorded for "O=C(N[C@H]1CCC[C@H]1C(=O)Nc1ccc(C(F)(F)F)cc1)OCc1ccccc1"
> 100 µM

In one line, give reported TGI of the entry "CC(C)C1=C(Cc2ccccc2)C(=O)O/C1=C\c1ccc(O)c(Cl)c1" .
28.4 µM

----------
Test system: SF-268 CNS
protocol.notes: NCI tumour cell line growth inhibition, 48 h
test.readout: TGI

# annotated cases, reported TGI shown
compound: CN(/N=C/c1ccc(Cl)cc1)C1=NCCCCN1
experimental.system: SF-268 CNS
result.value: > 100 µM
//
compound: COc1cc(-c2nc(-c3ccc(-c4nc5ccc(F)cc5[nH]4)cc3)no2)cc(OC)c1OC
experimental.system: SF-268 CNS
result.value: 32.4 µM
//
compound: COc1ccc(N2C(=O)C3c4[nH]c5ccccc5c4C4c5ccccc5CC4C3C2=O)cc1 (stereo unspecified)
experimental.system: SF-268 CNS
result.value: > 100 µM
//
compound: Fc1cccc(Cl)c1Cn1c(-c2c(F)cccc2Cl)nc2ccccc21
experimental.system: SF-268 CNS
result.value: 32.6 µM
//
compound: CCCC(=O)c1ccc(=O)n(C)c1
experimental.system: SF-268 CNS
result.value: > 100 µM
//
compound: CC1=NN(C(=O)Cc2ccccc2)C(=O)/C1=C\c1ccccc1O
experimental.system: SF-268 CNS
result.value: > 100 µM
//
compound: C[C@@H](Oc1cc(-n2cnc3ccc(OCC4CCN(C)CC4)cc32)sc1C(N)=O)c1ccccc1Cl
experimental.system: SF-268 CNS
result.value: 4.07 µM
//
compound: O=S1(=O)OCCCOS(=O)(=O)C1(Br)Br
experimental.system: SF-268 CNS
result.value: > 100 µM
//
compound: C[C@@]12C[C@@H](c3ccccc3O1)N1Cc3ccccc3CSC1=N2
experimental.system: SF-268 CNS
result.value: > 100 µM
//
compound: CC(=O)OCCOCNC(=S)N/N=C(\C)c1cccs1
experimental.system: SF-268 CNS
result.value: > 100 µM

Give the reported TGI for this compound. "O=C(Cc1ccc(Nc2ccnc(C(F)(F)F)c2)cc1)Nc1cc(Cl)ccc1O"
31.5 µM

Supply reported TGI belonging to this compound: "O=C(N[C@H]1CCC[C@H]1C(=O)Nc1ccc(C(F)(F)F)cc1)OCc1ccccc1"
> 100 µM

Give TGI for the following compound: "O=C(c1nn(-c2ccc(Cl)cc2)cc1O)n1nc(C(F)(F)F)cc1-c1ccccc1"
> 100 µM

Identify the reported TGI for the following entry. "CCSc1ccc([C@@H]2[C@@H](N)C(=O)N2c2cc(OC)c(OC)c(OC)c2)cc1"
> 100 µM

Indicate the recorded TGI value for this compound: "C[N+](C)(C)CC(=O)N/N=C(/Cc1nc2ccc([N+](=O)[O-])cc2[nH]c1=O)C(=O)Nc1cc(C(F)(F)F)ccc1Cl"
> 100 µM

Return the recorded TGI value; entry: "O=c1[nH]nc(Cc2ccc(Cl)cc2)n1/N=C/c1c[nH]c2ccccc12"
> 100 µM
